System tested: DS-Cav1 RSV F (respiratory syncytial virus)
Test description: ELISA on DS-Cav1 RSV F
Measured endpoint: EC50 (µg/mL)
Record the value in µg/mL, omitting the unit from your answer.

Recall and state the measured EC50 for MPH12 VH-FRGL-S63A / MPH12 VL-FRGL-D25E (antibody, V domains shown) VH: QVQLVESGGGLVKPGGSLRLSCAASGFTFSGFYMKWIRQAPGKGLEWVSSISASGSYTNYADAVEGRFTISRDNAKNSLYLQMNSLRAEDTAVYYCARGDSYCGASACHGEFFHKWGQGTLVTVSS VL: QSVLTQPPSVSGAPGQRVTISCTGSESNIGADFDVHWYQQLPGTAPKLLIYGNINRPSGVPDRFSGSKSGTSASLAITGLQAEDEADYYCQSYDRSLHYVFGTGTKVTVL . 0.0347
